The origin of these recorded values is paper PMC11859825.

Here, each record is paired with measured inhibition at 10 µM data.
target: recombinant human SphK1 (Homo sapiens, UniProt Q9NYA1); experiment: Fluorometric NBD-sphingosine sphingosine kinase inhibition assay, SphK1; conditions: read-out: Spk1 % (inhibition), Average, 10 μM, Tables S3-S5
Sequence (Q9NYA1 whole entry): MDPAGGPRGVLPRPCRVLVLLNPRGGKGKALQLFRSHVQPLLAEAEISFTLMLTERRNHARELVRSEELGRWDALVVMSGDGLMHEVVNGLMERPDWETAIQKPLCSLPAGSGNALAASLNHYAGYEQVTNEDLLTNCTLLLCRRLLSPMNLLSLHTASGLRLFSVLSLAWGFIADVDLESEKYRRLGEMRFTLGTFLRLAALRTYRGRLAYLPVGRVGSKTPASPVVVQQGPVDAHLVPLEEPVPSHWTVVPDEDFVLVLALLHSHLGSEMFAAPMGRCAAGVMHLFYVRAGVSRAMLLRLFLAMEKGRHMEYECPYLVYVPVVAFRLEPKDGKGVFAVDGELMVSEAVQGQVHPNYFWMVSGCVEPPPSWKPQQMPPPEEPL

COMPOUND_STRING: O=C1C=C(Oc2ccc(F)cc2)C(=O)c2nc(CN3CCC[C@@H]3CO)ccc21
UNITS_OF_MEASURE: %
inhibition at 10 µM: 69.7

COMPOUND_STRING: O=Cc1ccc2c(n1)C(=O)C(Oc1ccc(F)c(F)c1)=CC2=O
UNITS_OF_MEASURE: %
inhibition at 10 µM: -22.7

COMPOUND_STRING: Cc1ccc2c(n1)C(=O)C(Oc1ccc(C#N)cc1)=CC2=O
UNITS_OF_MEASURE: %
inhibition at 10 µM: 54.7

COMPOUND_STRING: Cc1ccc2c(n1)C(=O)C(Oc1ccc(F)c(F)c1)=CC2=O
UNITS_OF_MEASURE: %
inhibition at 10 µM: 20.3

COMPOUND_STRING: COc1ccc(OC2=CC(=O)c3ccc(C=O)nc3C2=O)cc1
UNITS_OF_MEASURE: %
inhibition at 10 µM: 14.6

====

Molecular target: recombinant human SphK2 (Homo sapiens, UniProt Q9NRA0)
Sequence (Q9NRA0 1-654): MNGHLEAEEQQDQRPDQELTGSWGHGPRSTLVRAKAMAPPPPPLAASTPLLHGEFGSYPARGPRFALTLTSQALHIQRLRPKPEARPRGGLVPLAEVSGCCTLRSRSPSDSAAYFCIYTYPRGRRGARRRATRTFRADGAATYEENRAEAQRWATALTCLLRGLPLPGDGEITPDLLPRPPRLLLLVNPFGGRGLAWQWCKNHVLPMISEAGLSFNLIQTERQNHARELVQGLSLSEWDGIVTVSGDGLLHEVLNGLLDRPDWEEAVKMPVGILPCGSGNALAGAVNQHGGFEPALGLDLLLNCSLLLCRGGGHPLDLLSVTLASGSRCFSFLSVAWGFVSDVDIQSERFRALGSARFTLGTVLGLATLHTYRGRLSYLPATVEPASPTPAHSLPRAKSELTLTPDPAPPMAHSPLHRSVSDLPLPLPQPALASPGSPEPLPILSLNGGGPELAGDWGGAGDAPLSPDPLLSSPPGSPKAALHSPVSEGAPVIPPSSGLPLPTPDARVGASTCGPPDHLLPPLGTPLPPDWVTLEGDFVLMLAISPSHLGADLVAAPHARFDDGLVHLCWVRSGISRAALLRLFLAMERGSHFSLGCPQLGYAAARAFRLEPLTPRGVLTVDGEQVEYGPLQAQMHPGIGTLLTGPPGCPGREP
Assay: Fluorometric NBD-sphingosine sphingosine kinase inhibition assay, SphK2
Conditions: read-out: Spk2 % (inhibition), replicate A, 10 μM, Tables S3-S5
Hi, to clarify the labels: YES covers inhibition at 10 µM from 40% upward, NO covers anything below 40%.

COMPOUND_STRING: O=Cc1ccc2c(n1)C(=O)C(Oc1ccc(F)cc1)=CC2=O
TARGET_UNDER_TEST: recombinant human SphK2 (Homo sapiens, UniProt Q9NRA0)
QUALITATIVE_LABEL: NO
--
COMPOUND_STRING: Cc1ccc2c(n1)C(=O)C(Oc1ccc(CCO)cc1)=CC2=O
TARGET_UNDER_TEST: recombinant human SphK2 (Homo sapiens, UniProt Q9NRA0)
QUALITATIVE_LABEL: NO
--
COMPOUND_STRING: O=Cc1ccc2c(n1)C(=O)C(Oc1ccc(F)c(F)c1)=CC2=O
TARGET_UNDER_TEST: recombinant human SphK2 (Homo sapiens, UniProt Q9NRA0)
QUALITATIVE_LABEL: NO
--
COMPOUND_STRING: Cc1ccc2c(n1)C(=O)C(Oc1ccc(Cl)c(Cl)c1)=CC2=O
TARGET_UNDER_TEST: recombinant human SphK2 (Homo sapiens, UniProt Q9NRA0)
QUALITATIVE_LABEL: NO
--
COMPOUND_STRING: COc1cccc(OC2=CC(=O)c3ccc(C)nc3C2=O)c1
TARGET_UNDER_TEST: recombinant human SphK2 (Homo sapiens, UniProt Q9NRA0)
QUALITATIVE_LABEL: YES
--
COMPOUND_STRING: COc1ccc(OC2=CC(=O)c3ccc(C=O)nc3C2=O)cc1
TARGET_UNDER_TEST: recombinant human SphK2 (Homo sapiens, UniProt Q9NRA0)
QUALITATIVE_LABEL: NO
--
COMPOUND_STRING: Cc1ccc2c(n1)C(=O)C(Oc1ccc(C#N)cc1)=CC2=O
TARGET_UNDER_TEST: recombinant human SphK2 (Homo sapiens, UniProt Q9NRA0)
QUALITATIVE_LABEL: YES
--
COMPOUND_STRING: COc1ccc(OC2=CC(=O)c3ccc(CN4CCC[C@@H]4CO)nc3C2=O)cc1
TARGET_UNDER_TEST: recombinant human SphK2 (Homo sapiens, UniProt Q9NRA0)
QUALITATIVE_LABEL: YES
--
COMPOUND_STRING: Cc1ccc2c(n1)C(=O)C(Oc1ccc(F)cc1)=CC2=O
TARGET_UNDER_TEST: recombinant human SphK2 (Homo sapiens, UniProt Q9NRA0)
QUALITATIVE_LABEL: YES
--
COMPOUND_STRING: Cc1ccc2c(n1)C(=O)C(Oc1ccc(F)c(Cl)c1)=CC2=O
TARGET_UNDER_TEST: recombinant human SphK2 (Homo sapiens, UniProt Q9NRA0)
QUALITATIVE_LABEL: NO
--
COMPOUND_STRING: COc1ccc(OC2=CC(=O)c3ccc(C)nc3C2=O)cc1
TARGET_UNDER_TEST: recombinant human SphK2 (Homo sapiens, UniProt Q9NRA0)
QUALITATIVE_LABEL: NO
--
COMPOUND_STRING: COc1cccc(OC2=CC(=O)c3ccc(C=O)nc3C2=O)c1
TARGET_UNDER_TEST: recombinant human SphK2 (Homo sapiens, UniProt Q9NRA0)
QUALITATIVE_LABEL: NO
--
COMPOUND_STRING: O=Cc1ccc2c(n1)C(=O)C(Oc1ccc(Br)cc1)=CC2=O
TARGET_UNDER_TEST: recombinant human SphK2 (Homo sapiens, UniProt Q9NRA0)
QUALITATIVE_LABEL: NO
--
COMPOUND_STRING: Cc1ccc2c(n1)C(=O)C(Oc1ccc(F)c(F)c1)=CC2=O
TARGET_UNDER_TEST: recombinant human SphK2 (Homo sapiens, UniProt Q9NRA0)
QUALITATIVE_LABEL: NO
